These data points were gathered from the supplement of paper PMC8728848.

ASSAYED_TARGET: Fuc(a1-2)[GalNAc(a1-3)]Gal(b1-3)GalNAc(a1-3)[Fuc(a1-2)]Gal(b1-4)GlcNAc
TEST_METHOD_NOTES: glycan array binding signal (z-score within array); higher = stronger binding
EXPERIMENTAL_CONDITIONS: glycan notation: IUPAC condensed, linker removed
About 410 targets per protein were measured; listed, in parts, are those with the strongest signals and a random draw of the rest.
MEASURE_NAME: glycan array binding signal (z-score)
Simply state the number, no unit and no words.

Problem: For the binder ConA (Canavalia ensiformis), P02866 (protein) MAISKKSSLFLPIFTFITMFLMVVNKVSSSTHETNALHFMFNQFSKDQKDLILQGDATTGTDGNLELTRVSSNGSPQGSSVGRALFYAPVHIWESSAVVASFEATFTFLIKSPDSHPADGIAFFISNIDSSIPSGSTGRLLGLFPDANVIRNSTTIDFNAAYNADTIVAVELDTYPNTDIGDPSYPHIGIDIKSVRSKKTAKWNMQNGKVGTAHIIYNSVDKRLSAVVSYPNADSATVSYDVDLDNVLPEWVRVGLSASTGLYKETNTILSWSFTSKLKSNEIPDIATVV , give its measured glycan array binding signal (z-score) value.
Result: -0.245

Problem: For the binder Apa (Mycobacterium tuberculosis), Rv1860 (protein) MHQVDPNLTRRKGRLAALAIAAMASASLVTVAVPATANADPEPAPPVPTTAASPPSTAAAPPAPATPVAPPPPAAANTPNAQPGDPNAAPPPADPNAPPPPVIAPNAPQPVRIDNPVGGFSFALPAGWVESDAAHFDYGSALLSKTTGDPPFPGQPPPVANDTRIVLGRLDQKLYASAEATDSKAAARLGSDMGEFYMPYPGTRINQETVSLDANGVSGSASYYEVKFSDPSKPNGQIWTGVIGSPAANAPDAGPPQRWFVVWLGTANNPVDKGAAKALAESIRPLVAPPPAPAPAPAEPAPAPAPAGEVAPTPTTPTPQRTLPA , give its measured glycan array binding signal (z-score) value.
Result: 14.3
